Data provenance is the supplement of paper PMC6555819.

tested on: PPARa:RXRa (NR concentration 270 nM, RXRa partner concentration 90 nM); assay: PBM binding z-score (relative to random genomic background probes); higher = stronger binding; sequences stand for … in GC…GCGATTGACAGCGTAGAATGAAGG
Measured PBM binding z-score determines class: range A (below 2), range B (2 to below 3), range C (3 or more)

{"sequence_code": "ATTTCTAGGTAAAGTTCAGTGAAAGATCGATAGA", "qualitative_label": "range B"}
{"sequence_code": "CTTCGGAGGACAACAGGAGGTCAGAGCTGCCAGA", "qualitative_label": "range B"}
{"sequence_code": "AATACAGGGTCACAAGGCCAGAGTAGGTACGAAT", "qualitative_label": "range C"}
{"sequence_code": "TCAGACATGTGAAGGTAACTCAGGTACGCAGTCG", "qualitative_label": "range A"}
{"sequence_code": "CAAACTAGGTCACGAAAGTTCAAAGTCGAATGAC", "qualitative_label": "range C"}
{"sequence_code": "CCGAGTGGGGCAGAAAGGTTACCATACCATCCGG", "qualitative_label": "range B"}
{"sequence_code": "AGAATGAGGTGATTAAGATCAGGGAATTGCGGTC", "qualitative_label": "range A"}
{"sequence_code": "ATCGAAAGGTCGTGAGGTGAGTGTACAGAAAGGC", "qualitative_label": "range C"}
{"sequence_code": "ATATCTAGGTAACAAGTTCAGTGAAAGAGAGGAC", "qualitative_label": "range C"}
{"sequence_code": "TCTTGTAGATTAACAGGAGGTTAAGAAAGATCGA", "qualitative_label": "range A"}
{"sequence_code": "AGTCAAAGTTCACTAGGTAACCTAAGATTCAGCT", "qualitative_label": "range C"}
{"sequence_code": "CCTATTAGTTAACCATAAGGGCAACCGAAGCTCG", "qualitative_label": "range A"}
{"sequence_code": "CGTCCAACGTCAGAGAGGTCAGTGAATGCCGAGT", "qualitative_label": "range B"}
